Every entry's value here was drawn from patent US8178506B2.

- System: mir-15a pri-miRNA
- assay: mir-15a pri-miRNA expression in HepG2 cells (real-time RT-PCR)
- Assay type: cell-based, human
- condition summary: HepG2 cells, 100 nM, real-time RT-PCR
In the oligonucleotide strings, read from the 5' end, every base follows the letter of its sugar. An asterisk marks phosphorothioate; unmarked linkages are phosphodiester. Other units and linkages are bracketed, terminal groups are in braces. A string of capitals states the bases alone. e = 2'-O-(2-methoxyethyl) (MOE); [5mC] = 5-methylcytosine; d = 2'-deoxy (DNA)
For each entry below, report its Expression of mir-15a pri-miRNA (% UTC) value.

Lab note: need Expression of mir-15a pri-miRNA (% UTC) for 347965 (eG*e[5mC]*eT*eA*e[5mC]*dT*dT*dT*dA*d[5mC]*dT*d[5mC]*d[5mC]*dA*dA*eG*eG*eT*eT*eT; antisense) [compound 347965] on mir-15a pri-miRNA, anyone have it?
86.0 % UTC

Lab note: need Expression of mir-15a pri-miRNA (% UTC) for 347970 (eA*eT*eA*eT*eG*dG*d[5mC]*d[5mC]*dT*dG*d[5mC]*dA*d[5mC]*d[5mC]*dT*eT*eT*eT*e[5mC]*eA; antisense) [compound 347970] on mir-15a pri-miRNA, anyone have it?
2.2 % UTC

Lab note: need Expression of mir-15a pri-miRNA (% UTC) for 347983 (eA*eA*eA*eT*eA*dT*dA*dT*dT*dT*dT*d[5mC]*dT*dT*d[5mC]*eA*eG*eA*eA*eG; antisense) [compound 347983] on mir-15a pri-miRNA, anyone have it?
13.0 % UTC

====

- Test system: HuVECs
- assay: Endothelial tube formation assay in HuVECs
- condition summary: 75 nM oligomeric compound, Table 59
In the oligonucleotide strings, read from the 5' end, every base follows the letter of its sugar. An asterisk marks phosphorothioate; unmarked linkages are phosphodiester. Other units and linkages are bracketed, terminal groups are in braces. A string of capitals states the bases alone. e = 2'-O-(2-methoxyethyl) (MOE); [5mC] = 5-methylcytosine
property label: % Activity Relative to UTC (tube formation) (%)
Output spec: scalar in %, unitless text.

Data request, read-out % Activity Relative to UTC (tube formation), for 327956 (antisense e[5mC]*eA*e[5mC]*eA*eG*eT*eT*eG*e[5mC]*e[5mC]*eA*eG*e[5mC]*eT*eG*eA*eG*eA*eT*eT*eA) [compound 327956]
46.7

Data request, read-out % Activity Relative to UTC (tube formation), for 327901 (antisense eT*eG*eA*eG*e[5mC]*eT*eA*e[5mC]*eA*eG*eT*eG*e[5mC]*eT*eT*e[5mC]*eA*eT*e[5mC]*eT*e[5mC]*eA) [compound 327901]
100.0

Data request, read-out % Activity Relative to UTC (tube formation), for 327952 (antisense e[5mC]*eT*eA*e[5mC]*eG*e[5mC]*eG*eT*eA*eT*eT*e[5mC]*eT*eT*eA*eA*eG*e[5mC]*eA*eA*eT*eA) [compound 327952]
53.3

Data request, read-out % Activity Relative to UTC (tube formation), for 327963 (antisense eA*eA*e[5mC]*e[5mC]*eT*eA*eT*e[5mC]*e[5mC]*eT*eG*eA*eA*eT*eT*eA*e[5mC]*eT*eT*eG*eA*eA) [compound 327963]
93.3

Data request, read-out % Activity Relative to UTC (tube formation), for 327950 (antisense eT*e[5mC]*eA*eG*eT*eT*eT*eT*eG*e[5mC]*eA*eT*eA*eG*eA*eT*eT*eT*eG*e[5mC]*eA*e[5mC]*eA) [compound 327950]
73.3

====

- Tested on: adipocytes
- assay: Triglyceride accumulation assay in adipocytes
- Format: cell-based, human
- condition summary: differentiating adipocytes transfected with oligomeric compound; Table 75
In the oligonucleotide strings, read from the 5' end, every base follows the letter of its sugar. An asterisk marks phosphorothioate; unmarked linkages are phosphodiester. Other units and linkages are bracketed, terminal groups are in braces. A string of capitals states the bases alone. e = 2'-O-(2-methoxyethyl) (MOE); [5mC] = 5-methylcytosine
For each entry below, report its TG (triglyceride accumulation) value.

Lab note: need TG (triglyceride accumulation) for 340343 (antisense ACAGGAGUCUGAGCAUUUGA; all 2'-MOE, all phosphorothioate, methylation of C and T or U not given here) [compound 340343] on adipocytes, anyone have it?
35 percentage of untreated control (UTC)

Lab note: need TG (triglyceride accumulation) for 344616 (AGAGGUCGACCGUGUAAUGUGC; anti-miR; all 2'-MOE, all phosphorothioate, methylation of C and T or U not given here) [compound 344616] on adipocytes, anyone have it?
32 percentage of untreated control (UTC)

Lab note: need TG (triglyceride accumulation) for 327959 (antisense e[5mC]*eA*eG*e[5mC]*e[5mC]*eG*e[5mC]*eT*eG*eT*e[5mC]*eA*e[5mC]*eA*e[5mC]*eG*e[5mC]*eA*e[5mC]*eA*eG) [compound 327959] on adipocytes, anyone have it?
33 percentage of untreated control (UTC)

Lab note: need TG (triglyceride accumulation) for 328108 (antisense eA*eA*eA*e[5mC]*eT*eT*eG*eT*eT*eA*eA*eT*eT*eG*eA*e[5mC]*eT*eG*eT*e[5mC]*eA) [compound 328108] on adipocytes, anyone have it?
79 percentage of untreated control (UTC)

Lab note: need TG (triglyceride accumulation) for 344341 (CACAUGGUUAGAUCAAGCACAA; anti-miR; all 2'-MOE, all phosphorothioate, methylation of C and T or U not given here) [compound 344341] on adipocytes, anyone have it?
50 percentage of untreated control (UTC)

Lab note: need TG (triglyceride accumulation) for 327906 (antisense eT*e[5mC]*eA*eT*eA*eG*e[5mC]*e[5mC]*e[5mC]*eT*eG*eT*eA*e[5mC]*eA*eA*eT*eG*e[5mC]*eT*eG*e[5mC]*eT) [compound 327906] on adipocytes, anyone have it?
25 percentage of untreated control (UTC)

Lab note: need TG (triglyceride accumulation) for 328104 (antisense eT*eA*eT*eG*eA*eT*eA*eG*e[5mC]*eT*eT*e[5mC]*e[5mC]*e[5mC]*e[5mC]*eA*eT*eG*eT*eA*eA) [compound 328104] on adipocytes, anyone have it?
64 percentage of untreated control (UTC)

Lab note: need TG (triglyceride accumulation) for 346920 (AGCAAAAAUGUGCUAGUGCCAAA; all 2'-MOE, all phosphorothioate, methylation of C and T or U not given here) [compound 346920] on adipocytes, anyone have it?
63 percentage of untreated control (UTC)

Lab note: need TG (triglyceride accumulation) for 327966 (antisense eA*eT*e[5mC]*e[5mC]*eA*eA*eT*e[5mC]*eA*eG*eT*eT*e[5mC]*e[5mC]*eT*eG*eA*eT*eG*e[5mC]*eA*eG*eT*eA) [compound 327966] on adipocytes, anyone have it?
52 percentage of untreated control (UTC)

Lab note: need TG (triglyceride accumulation) for 327961 (antisense eG*eG*eG*eG*eT*eA*eT*eT*eT*eG*eA*e[5mC]*eA*eA*eA*e[5mC]*eT*eG*eA*e[5mC]*eA) [compound 327961] on adipocytes, anyone have it?
77 percentage of untreated control (UTC)

Lab note: need TG (triglyceride accumulation) for 327935 (antisense e[5mC]*eT*eA*e[5mC]*e[5mC]*eT*eG*e[5mC]*eA*e[5mC]*eT*eA*eT*eA*eA*eG*e[5mC]*eA*e[5mC]*eT*eT*eT*eA) [compound 327935] on adipocytes, anyone have it?
41 percentage of untreated control (UTC)

Lab note: need TG (triglyceride accumulation) for 344612 (ACGGAAGGGCAGAGAGGGCCAG; anti-miR; all 2'-MOE, all phosphorothioate, methylation of C not given here) [compound 344612] on adipocytes, anyone have it?
69 percentage of untreated control (UTC)

Lab note: need TG (triglyceride accumulation) for 328094 (antisense eT*eT*eG*eT*eA*eA*eG*e[5mC]*eA*eG*eT*eT*eT*eT*eG*eT*eT*eG*eA*e[5mC]*eA) [compound 328094] on adipocytes, anyone have it?
65 percentage of untreated control (UTC)

Lab note: need TG (triglyceride accumulation) for 346909 (UCACCAAAACAUGGAAGCACUUA; all 2'-MOE, all phosphorothioate, methylation of C and T or U not given here) [compound 346909] on adipocytes, anyone have it?
66 percentage of untreated control (UTC)

Lab note: need TG (triglyceride accumulation) for 327879 (antisense eA*eA*e[5mC]*eA*eA*eA*eA*eT*e[5mC]*eA*e[5mC]*eT*eA*eG*eT*e[5mC]*eT*eT*e[5mC]*e[5mC]*eA) [compound 327879] on adipocytes, anyone have it?
59 percentage of untreated control (UTC)

Lab note: need TG (triglyceride accumulation) for 327962 (antisense eG*e[5mC]*eT*eG*eA*eG*eA*eG*eT*eG*eT*eA*eG*eG*eA*eT*eG*eT*eT*eT*eA*e[5mC]*eA) [compound 327962] on adipocytes, anyone have it?
64 percentage of untreated control (UTC)

Lab note: need TG (triglyceride accumulation) for 327957 (antisense e[5mC]*eA*e[5mC]*eA*eA*eG*eT*eT*e[5mC]*eG*eG*eA*eT*e[5mC]*eT*eA*e[5mC]*eG*eG*eG*eT*eT) [compound 327957] on adipocytes, anyone have it?
29 percentage of untreated control (UTC)

Lab note: need TG (triglyceride accumulation) for 327921 (antisense e[5mC]*eT*eT*e[5mC]*e[5mC]*eA*eG*eT*e[5mC]*eG*eG*eG*eG*eA*eT*eG*eT*eT*eT*eA*e[5mC]*eA) [compound 327921] on adipocytes, anyone have it?
56 percentage of untreated control (UTC)

Lab note: need TG (triglyceride accumulation) for 328102 (antisense eG*e[5mC]*e[5mC]*e[5mC]*e[5mC]*eA*eT*eT*eA*eA*eT*eA*eT*eT*eT*eT*eA*eA*e[5mC]*e[5mC]*eA) [compound 328102] on adipocytes, anyone have it?
70 percentage of untreated control (UTC)
